test: Molar ratio SAE-CD:corticosteroid at saturated solubility (phase solubility binding study); assay type: physicochemical; conditions: SAE-α-CD
observable: Approximate Molar Ratio at Saturated Solubility of Corticosteroid (SAE-CD: corticosteroid)

[
  {
    "compound": "CCCC1O[C@@H]2C[C@H]3[C@@H]4CCC5=CC(=O)C=C[C@]5(C)[C@H]4[C@@H](O)C[C@]3(C)[C@]2(C(=O)CO)O1 (stereo partly shown) [Budesonide]",
    "reportedResult": "~12"
  },
  {
    "compound": "C[C@@H]1C[C@H]2[C@@H]3CCC4=CC(=O)C=C[C@]4(C)[C@@]3(Cl)[C@@H](O)C[C@]2(C)[C@@]1(O)C(=O)CCl",
    "reportedResult": "~73"
  },
  {
    "compound": "CCC(=O)O[C@]1(C(=O)SCF)[C@H](C)C[C@H]2[C@@H]3C[C@H](F)C4=CC(=O)C=C[C@]4(C)[C@@]3(F)[C@@H](O)C[C@@]21C [Fluticasone propionate, fluticasone propionate]",
    "reportedResult": "~501"
  },
  {
    "compound": "C[C@@H]1C[C@H]2[C@@H]3CCC4=CC(=O)C=C[C@]4(C)[C@@]3(Cl)[C@@H](O)C[C@]2(C)[C@@]1(OC(=O)c1ccco1)C(=O)CCl [Mometasone furoate, mometasone furoate]",
    "reportedResult": "~141"
  }
]

----------
experiment: Solubility of selected steroids enhanced by cyclodextrins (phase solubility); conditions: aqueous cyclodextrin solution, aqueous with cosolvent or surfactant or cyclodextrin, thermodynamic from solid, Solubility of steroid, γ-CD 0.1 M
Everything with solubility lower than 200 µM is N; everything else, including exactly 200 µM, is Y.

[
  {
    "compound": "C[C@@H]1C[C@H]2[C@@H]3CCC4=CC(=O)C=C[C@]4(C)[C@@]3(Cl)[C@@H](O)C[C@]2(C)[C@@]1(O)C(=O)CCl",
    "category": "N"
  },
  {
    "compound": "CC1(C)O[C@@H]2C[C@H]3[C@@H]4CCC5=CC(=O)C=C[C@]5(C)[C@@]4(F)[C@@H](O)C[C@]3(C)[C@]2(C(=O)CO)O1 [Triamcinolone acetonide, triamcinolone acetonide]",
    "category": "Y"
  },
  {
    "compound": "C[C@@H]1C[C@H]2[C@@H]3C[C@H](F)C4=CC(=O)C=C[C@]4(C)[C@@]3(F)[C@@H](O)C[C@]2(C)[C@@]1(O)C(=O)SCF",
    "category": "Y"
  },
  {
    "compound": "CCC(=O)O[C@]1(C(=O)SCF)[C@H](C)C[C@H]2[C@@H]3C[C@H](F)C4=CC(=O)C=C[C@]4(C)[C@@]3(F)[C@@H](O)C[C@@]21C [Fluticasone propionate, fluticasone propionate]",
    "category": "Y"
  },
  {
    "compound": "CCCC1O[C@@H]2C[C@H]3[C@@H]4CCC5=CC(=O)C=C[C@]5(C)[C@H]4[C@@H](O)C[C@]3(C)[C@]2(C(=O)CO)O1 (stereo partly drawn) [Budesonide]",
    "category": "N"
  },
  {
    "compound": "C[C@@H]1C[C@H]2[C@@H]3CCC4=CC(=O)C=C[C@]4(C)[C@@]3(Cl)[C@@H](O)C[C@]2(C)[C@@]1(OC(=O)c1ccco1)C(=O)CCl [Mometasone furoate, mometasone furoate]",
    "category": "Y"
  }
]

----------
assay: Solubility of selected steroids enhanced by cyclodextrins (phase solubility); details: aqueous cyclodextrin solution, aqueous with cosolvent or surfactant or cyclodextrin, thermodynamic from solid, Solubility of steroid, γ-CD 0.035 M

[
  {
    "compound": "C[C@@H]1C[C@H]2[C@@H]3CCC4=CC(=O)C=C[C@]4(C)[C@@]3(Cl)[C@@H](O)C[C@]2(C)[C@@]1(OC(=O)c1ccco1)C(=O)CCl [Mometasone furoate, mometasone furoate]",
    "solubility / µM": 141
  },
  {
    "compound": "C[C@@H]1C[C@H]2[C@@H]3CCC4=CC(=O)C=C[C@]4(C)[C@@]3(Cl)[C@@H](O)C[C@]2(C)[C@@]1(O)C(=O)CCl",
    "solubility / µM": 27.1
  },
  {
    "compound": "CC1(C)O[C@@H]2C[C@H]3[C@@H]4CCC5=CC(=O)C=C[C@]5(C)[C@@]4(F)[C@@H](O)C[C@]3(C)[C@]2(C(=O)CO)O1 [Triamcinolone acetonide, triamcinolone acetonide]",
    "solubility / µM": 1980
  },
  {
    "compound": "CCC(=O)O[C@]1(C(=O)SCF)[C@H](C)C[C@H]2[C@@H]3C[C@H](F)C4=CC(=O)C=C[C@]4(C)[C@@]3(F)[C@@H](O)C[C@@]21C [Fluticasone propionate, fluticasone propionate]",
    "solubility / µM": 735
  },
  {
    "compound": "CCCC1O[C@@H]2C[C@H]3[C@@H]4CCC5=CC(=O)C=C[C@]5(C)[C@H]4[C@@H](O)C[C@]3(C)[C@]2(C(=O)CO)O1 (some centres unmarked) [Budesonide]",
    "solubility / µM": 101
  }
]

----------
// reported solubility per item
assay: Solubility of selected steroids enhanced by cyclodextrins (phase solubility); conditions: aqueous cyclodextrin solution, aqueous with cosolvent or surfactant or cyclodextrin, thermodynamic from solid, Solubility of steroid, (SPE)7 β-CD 0.08 M
observable: solubility (µM)

[
  {
    "compound": "CCCC1O[C@@H]2C[C@H]3[C@@H]4CCC5=CC(=O)C=C[C@]5(C)[C@H]4[C@@H](O)C[C@]3(C)[C@]2(C(=O)CO)O1 (some centres unmarked) [Budesonide]",
    "observable": "solubility",
    "unitString": "µM",
    "reportedResult": 2420
  },
  {
    "compound": "C[C@@H]1C[C@H]2[C@@H]3CCC4=CC(=O)C=C[C@]4(C)[C@@]3(Cl)[C@@H](O)C[C@]2(C)[C@@]1(O)C(=O)CCl [Mometasone, mometasone]",
    "observable": "solubility",
    "unitString": "µM",
    "reportedResult": 2230
  },
  {
    "compound": "C[C@@H]1C[C@H]2[C@@H]3CCC4=CC(=O)C=C[C@]4(C)[C@@]3(Cl)[C@@H](O)C[C@]2(C)[C@@]1(OC(=O)c1ccco1)C(=O)CCl [Mometasone furoate, mometasone furoate]",
    "observable": "solubility",
    "unitString": "µM",
    "reportedResult": 108
  },
  {
    "compound": "C[C@@H]1C[C@H]2[C@@H]3C[C@H](F)C4=CC(=O)C=C[C@]4(C)[C@@]3(F)[C@@H](O)C[C@]2(C)[C@@]1(O)C(=O)SCF [Fluticasone, fluticasone]",
    "observable": "solubility",
    "unitString": "µM",
    "reportedResult": 1510
  },
  {
    "compound": "CCC(=O)O[C@]1(C(=O)SCF)[C@H](C)C[C@H]2[C@@H]3C[C@H](F)C4=CC(=O)C=C[C@]4(C)[C@@]3(F)[C@@H](O)C[C@@]21C [Fluticasone propionate, fluticasone propionate]",
    "observable": "solubility",
    "unitString": "µM",
    "reportedResult": 21.2
  }
]

----------
experiment: Molar ratio SAE-CD:corticosteroid at saturated solubility (phase solubility binding study); type: physicochemical; conditions: SAE-β-CD
// reported Approximate Molar Ratio at Saturated Solubility of Corticosteroid (SAE-CD: corticosteroid) per item
observable: Approximate Molar Ratio at Saturated Solubility of Corticosteroid (SAE-CD: corticosteroid)

[
  {
    "molecule": "CCC(=O)O[C@]1(C(=O)SCF)[C@H](C)C[C@H]2[C@@H]3C[C@H](F)C4=CC(=O)C=C[C@]4(C)[C@@]3(F)[C@@H](O)C[C@@]21C [Fluticasone propionate, fluticasone propionate]",
    "reportedResult": "~797"
  },
  {
    "molecule": "CCCC1O[C@@H]2C[C@H]3[C@@H]4CCC5=CC(=O)C=C[C@]5(C)[C@H]4[C@@H](O)C[C@]3(C)[C@]2(C(=O)CO)O1 (stereo partly drawn) [Budesonide]",
    "reportedResult": "~16"
  },
  {
    "molecule": "C[C@@H]1C[C@H]2[C@@H]3C[C@H](F)C4=CC(=O)C=C[C@]4(C)[C@@]3(F)[C@@H](O)C[C@]2(C)[C@@]1(O)C(=O)SCF [Fluticasone, fluticasone]",
    "reportedResult": "~32"
  }
]

----------
test: Solubility of selected steroids enhanced by cyclodextrins (phase solubility); conditions: aqueous cyclodextrin solution, aqueous with cosolvent or surfactant or cyclodextrin, thermodynamic from solid, Solubility of steroid, (SBE)6.1 γ-CD 0.04 M
// reported solubility per item
observable: solubility

[
  {
    "molecule": "CC1(C)O[C@@H]2C[C@H]3[C@@H]4CCC5=CC(=O)C=C[C@]5(C)[C@@]4(F)[C@@H](O)C[C@]3(C)[C@]2(C(=O)CO)O1 [Triamcinolone acetonide, triamcinolone acetonide]",
    "observable": "solubility",
    "reportedResult": "10.6 mM"
  },
  {
    "molecule": "CCC(=O)O[C@]1(C(=O)SCF)[C@H](C)C[C@H]2[C@@H]3C[C@H](F)C4=CC(=O)C=C[C@]4(C)[C@@]3(F)[C@@H](O)C[C@@]21C [Fluticasone propionate, fluticasone propionate]",
    "observable": "solubility",
    "reportedResult": "0.518 mM"
  },
  {
    "molecule": "CCCC1O[C@@H]2C[C@H]3[C@@H]4CCC5=CC(=O)C=C[C@]5(C)[C@H]4[C@@H](O)C[C@]3(C)[C@]2(C(=O)CO)O1 (stereo partly drawn) [Budesonide]",
    "observable": "solubility",
    "reportedResult": "3.07 mM"
  },
  {
    "molecule": "C[C@@H]1C[C@H]2[C@@H]3C[C@H](F)C4=CC(=O)C=C[C@]4(C)[C@@]3(F)[C@@H](O)C[C@]2(C)[C@@]1(O)C(=O)SCF",
    "observable": "solubility",
    "reportedResult": "5.76 mM"
  },
  {
    "molecule": "C[C@@H]1C[C@H]2[C@@H]3CCC4=CC(=O)C=C[C@]4(C)[C@@]3(Cl)[C@@H](O)C[C@]2(C)[C@@]1(OC(=O)c1ccco1)C(=O)CCl [Mometasone furoate, mometasone furoate]",
    "observable": "solubility",
    "reportedResult": "0.415 mM"
  },
  {
    "molecule": "C[C@@H]1C[C@H]2[C@@H]3CCC4=CC(=O)C=C[C@]4(C)[C@@]3(Cl)[C@@H](O)C[C@]2(C)[C@@]1(O)C(=O)CCl",
    "observable": "solubility",
    "reportedResult": "8.41 mM"
  }
]
